tested on: NCI-H1417 complex spheroids, growth % test/control; assay: Anticancer human tumor NCI-H1417 cell line growth inhibition [Asc]; settings: second compound 0.316 µM; first compound 0.0316 µM; hits give low values;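 note: spheroids exposed to compounds for 7 days; 100% = DMSO vehicle control wells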
Readout: viability, T/C (%)

Compound | Test value
O=C(c1ccc(F)c(F)c1Nc1ccc(I)cc1F)N1CC(O)([C@@H]2CCCCN2)C1 + Cc1c(S(C)(=O)=O)c(-c2cc(F)cc(N3CCN(c4ccc(NS(=O)(=O)c5ccc(NC(CCN6CCC(C(=O)OCCCP(=O)(O)O)CC6)CSc6ccccc6)c(S(=O)(=O)C(F)(F)F)c5)cc4)CC3)c2)c(-c2ccc(Cl)cc2)n1C(C)C | 44.7
O=C(c1ccc(F)c(F)c1Nc1ccc(I)cc1F)N1CC(O)([C@@H]2CCCCN2)C1 + CNC(C)C(=O)NC1CN(S(=O)(=O)c2cccc(S(=O)(=O)N3CCC4CCC(C(=O)NC(c5ccccc5)c5ccccc5)N4C(=O)C(NC(=O)C(C)NC)C3)c2)CCC2CCC(C(=O)NC(c3ccccc3)c3ccccc3)N2C1=O | 110

====

tested on: NCI-H1417 complex spheroids, growth % test/control; assay: Anticancer human tumor NCI-H1417 cell line growth inhibition [Asc]; settings: second compound 0.316 µM; first compound 0.00316 µM; hits give low values;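 note: spheroids exposed to compounds for 7 days; 100% = DMSO vehicle control wells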
Entries and their viability, T/C values follow.

Compound | viability, T/C
COc1c(OCCCN2CCOCC2)ccc2c3n(c(=NC(=O)c4cnc(N)nc4)nc12)CCN3 + Cc1c(S(C)(=O)=O)c(-c2cc(F)cc(N3CCN(c4ccc(NS(=O)(=O)c5ccc(NC(CCN6CCC(C(=O)OCCCP(=O)(O)O)CC6)CSc6ccccc6)c(S(=O)(=O)C(F)(F)F)c5)cc4)CC3)c2)c(-c2ccc(Cl)cc2)n1C(C)C | 46.7%
CCN1CCN(Cc2ccc(Nc3ncc(F)c(-c4cc(F)c5nc(C)n(C(C)C)c5c4)n3)nc2)CC1 + CNC(C)C(=O)NC1CN(S(=O)(=O)c2cccc(S(=O)(=O)N3CCC4CCC(C(=O)NC(c5ccccc5)c5ccccc5)N4C(=O)C(NC(=O)C(C)NC)C3)c2)CCC2CCC(C(=O)NC(c3ccccc3)c3ccccc3)N2C1=O | 99.3%
NC1CCC(NC2CC2c2ccccc2)CC1 (centres undefined) + Cc1c(S(C)(=O)=O)c(-c2cc(F)cc(N3CCN(c4ccc(NS(=O)(=O)c5ccc(NC(CCN6CCC(C(=O)OCCCP(=O)(O)O)CC6)CSc6ccccc6)c(S(=O)(=O)C(F)(F)F)c5)cc4)CC3)c2)c(-c2ccc(Cl)cc2)n1C(C)C | 34.7%
O=C(c1ccc(F)c(F)c1Nc1ccc(I)cc1F)N1CC(O)([C@@H]2CCCCN2)C1 + Cc1c(S(C)(=O)=O)c(-c2cc(F)cc(N3CCN(c4ccc(NS(=O)(=O)c5ccc(NC(CCN6CCC(C(=O)OCCCP(=O)(O)O)CC6)CSc6ccccc6)c(S(=O)(=O)C(F)(F)F)c5)cc4)CC3)c2)c(-c2ccc(Cl)cc2)n1C(C)C | 46.5%

====

system: NCI-H1417 complex spheroids, growth % test/control; assay: Anticancer human tumor NCI-H1417 cell line growth inhibition [Asc]; conditions: second compound 1 µM; first compound 3.16 µM; hits give low values;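 note: spheroids exposed to compounds for 7 days; 100% = DMSO vehicle control wells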

Compound | Unit text | viability, T/C
C=C(F)C(=O)N1CCN(c2nc(OCC3CCCN3C)nc3c2CCN(c2cccc4cccc(Cl)c24)C3)CC1CC#N (stereo not given) + Cc1c(S(C)(=O)=O)c(-c2cc(F)cc(N3CCN(c4ccc(NS(=O)(=O)c5ccc(NC(CCN6CCC(C(=O)OCCCP(=O)(O)O)CC6)CSc6ccccc6)c(S(=O)(=O)C(F)(F)F)c5)cc4)CC3)c2)c(-c2ccc(Cl)cc2)n1C(C)C | % | 0.15
C=CC(=O)N1CCN(c2nc(=O)n(-c3c(C)ccnc3C(C)C)c3nc(-c4c(O)cccc4F)c(F)cc23)C(C)C1 (stereo not given) + Cc1c(S(C)(=O)=O)c(-c2cc(F)cc(N3CCN(c4ccc(NS(=O)(=O)c5ccc(NC(CCN6CCC(C(=O)OCCCP(=O)(O)O)CC6)CSc6ccccc6)c(S(=O)(=O)C(F)(F)F)c5)cc4)CC3)c2)c(-c2ccc(Cl)cc2)n1C(C)C | % | 15.7
O=C(c1cc(Cc2n[nH]c(=O)c3ccccc23)ccc1F)N1CCN(C(=O)C2CC2)CC1 + Cc1c(S(C)(=O)=O)c(-c2cc(F)cc(N3CCN(c4ccc(NS(=O)(=O)c5ccc(NC(CCN6CCC(C(=O)OCCCP(=O)(O)O)CC6)CSc6ccccc6)c(S(=O)(=O)C(F)(F)F)c5)cc4)CC3)c2)c(-c2ccc(Cl)cc2)n1C(C)C | % | 2.71
C=CC(=O)N1CCN(c2nc(=O)n(-c3c(C)ccnc3C(C)C)c3nc(-c4c(O)cccc4F)c(F)cc23)C(C)C1 (stereo not given) + CNC(C)C(=O)NC1CN(S(=O)(=O)c2cccc(S(=O)(=O)N3CCC4CCC(C(=O)NC(c5ccccc5)c5ccccc5)N4C(=O)C(NC(=O)C(C)NC)C3)c2)CCC2CCC(C(=O)NC(c3ccccc3)c3ccccc3)N2C1=O | % | 104
C=C(F)C(=O)N1CCN(c2nc(OCC3CCCN3C)nc3c2CCN(c2cccc4cccc(Cl)c24)C3)CC1CC#N (stereo not given) + CNC(C)C(=O)NC1CN(S(=O)(=O)c2cccc(S(=O)(=O)N3CCC4CCC(C(=O)NC(c5ccccc5)c5ccccc5)N4C(=O)C(NC(=O)C(C)NC)C3)c2)CCC2CCC(C(=O)NC(c3ccccc3)c3ccccc3)N2C1=O | % | 50.9
